# Assay Remarks: Inhibition of viral neuraminidase after 20 mins by fluorescence assay
Reported Endpoint: IC50

[[record]]
molecule = "CO[C@]12OC[C@@H](O)c3c(C)ccc(c31)C1=C(C2=O)C(C)(C)CCC1 (racemic)"
result = "> 30 µM"

[[record]]
molecule = "COc1ccc(-c2cc(OC)c3c(oc4cc(O)c(O)cc43)c2OC)cc1"
result = "> 30 µM"

[[record]]
molecule = "COc1c(-c2ccc(O)cc2)cc(O)c(-c2ccc(O)cc2)c1O"
result = "> 30 µM"

[[record]]
molecule = "COc1cc(-c2ccccc2)c(OC)c(O)c1-c1ccc(O)c(O)c1"
result = "> 30 µM"

[[record]]
molecule = "COc1c(-c2ccccc2)cc(OC)c2c1oc1cc(O)c(O)cc12"
result = "9.05 µM"


====

Entries and their measured IC50 follow.
# Assay Remarks: Inhibition of viral neuraminidase after 20 mins by fluorescence assay
Reported Endpoint: IC50

[[record]]
molecule = "C=C[C@@]1(C)CC[C@H]2C(=C[C@H](O)[C@H]3C(C)(C)CC[C@@H](O)[C@]23C)[C@H]1O (relative stereo)"
result = "> 30 µM"

[[record]]
molecule = "COc1c(-c2ccc(O)cc2)cc(OC)c2c1oc1cc(O)c(O)cc12 [CANDIDUSIN A]"
result = "> 30 µM"

[[record]]
molecule = "COc1cc(-c2ccc(O)cc2)c(OC)c(O)c1-c1ccc(O)cc1 [TERPHENYLLIN]"
result = "> 30 µM"

[[record]]
molecule = "COc1cc(-c2ccccc2)c(OC)c(O)c1-c1ccc(O)cc1"
result = "4.34 µM"

[[record]]
molecule = "COc1cc(-c2ccc(O)cc2)c(OC)c(O)c1-c1ccc(O)c(O)c1"
result = "9.17 µM"

[[record]]
molecule = "CO[C@@H]1CO[C@]2(OC)C(=O)C3=C(CCCC3(C)C)c3ccc(C)c1c32 (racemic)"
result = "> 30 µM"

[[record]]
molecule = "COc1cc(-c2ccc(O)cc2)c(OC)c(O)c1C1=CC(=O)OC1CC(=O)O (stereo not drawn) [TERPHENOLIDE]"
result = "5.79 µM"

[[record]]
molecule = "C=Cc1c(C)ccc2c1C(=O)[C@H](O)[C@H]1C(C)(C)CC[C@@H](O)[C@]21C [ASPERGILOID C]"
result = "> 30 µM"


====

Measured IC50 values are reported for all entries that follow.
# Assay Remarks: Inhibition of viral neuraminidase after 20 mins by fluorescence assay
Reported Endpoint: IC50

[[record]]
structure_smiles = "COc1cc2oc3c(OC)c(-c4ccc(O)cc4)cc(OC)c3c2cc1OC"
reported_endpoint = "IC50"
result = "> 30 µM"

[[record]]
structure_smiles = "CCOC(=O)C1=C[C@@H](OC(CC)CC)[C@H](NC(C)=O)[C@@H](N)C1"
reported_endpoint = "IC50"
result = "0.14 µM"

[[record]]
structure_smiles = "COc1c(-c2ccccc2)cc(O)c(-c2ccc(O)cc2)c1O"
reported_endpoint = "IC50"
result = "> 30 µM"


The reported measurements were obtained from ChEMBL document CHEMBL1949607.
